Target: Androgen Receptor (AR) (Homo sapiens, UniProt P10275, T878A)
Construct: cell based immuno-fluorescence assay using the LNCaP prostate epithelial cell line; endogenous in cells; host or cells: LNCaP clone FGC (ATCC CRL-1740)
Sequence (P10275 1-920 T878A): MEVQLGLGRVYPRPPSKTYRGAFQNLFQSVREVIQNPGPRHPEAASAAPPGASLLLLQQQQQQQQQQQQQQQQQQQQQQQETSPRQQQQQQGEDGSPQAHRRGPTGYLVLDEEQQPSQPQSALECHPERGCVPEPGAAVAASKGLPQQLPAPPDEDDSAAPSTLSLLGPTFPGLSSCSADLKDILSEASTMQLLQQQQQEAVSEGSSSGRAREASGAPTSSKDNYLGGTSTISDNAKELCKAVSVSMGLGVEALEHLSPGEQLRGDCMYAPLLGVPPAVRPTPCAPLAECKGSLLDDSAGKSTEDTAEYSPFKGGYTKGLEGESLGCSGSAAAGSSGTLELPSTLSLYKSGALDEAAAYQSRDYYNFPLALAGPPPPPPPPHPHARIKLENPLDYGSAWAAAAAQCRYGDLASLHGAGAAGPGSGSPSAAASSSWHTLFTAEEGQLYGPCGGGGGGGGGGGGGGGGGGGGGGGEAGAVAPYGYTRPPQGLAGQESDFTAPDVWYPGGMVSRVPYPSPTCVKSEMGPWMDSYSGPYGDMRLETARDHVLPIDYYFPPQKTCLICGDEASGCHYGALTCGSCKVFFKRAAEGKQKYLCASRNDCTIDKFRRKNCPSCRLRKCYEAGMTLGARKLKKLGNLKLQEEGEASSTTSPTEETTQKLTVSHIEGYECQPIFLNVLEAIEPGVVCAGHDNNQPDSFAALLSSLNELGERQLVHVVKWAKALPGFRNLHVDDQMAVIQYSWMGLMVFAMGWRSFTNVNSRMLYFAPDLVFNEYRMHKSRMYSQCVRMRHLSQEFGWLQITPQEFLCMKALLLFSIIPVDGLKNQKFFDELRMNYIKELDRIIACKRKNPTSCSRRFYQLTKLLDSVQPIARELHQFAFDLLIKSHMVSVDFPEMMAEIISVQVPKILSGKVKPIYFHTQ
Assay: LNCaP Androgen Receptor Down-regulation Cell Assay (immunofluorescence end point)
Format: cell-based
Details: LNCaP prostate carcinoma cells, compound incubation 20-22 hours, 50% reduction of the AR signal; read-out: Androgen Receptor Down-regulation Assay (a) IC50/μM
# DC50 listing for each entry below
Please give a number only; it is taken to be in µM.

For orientation, consider the following solved cases.
1) FC(F)(F)c1ccc(C2CCN(c3ccc4nnc(C(F)(F)Cl)n4n3)C2)cc1 (centres unmarked) [Example 335] ... 1.5
2) FC(F)c1ccc(CN2CCN(c3ccc4nnc(C(F)(F)F)n4n3)CC2)cc1 [Example 827] ... 1
3) COc1ccc(CN2CCN(c3ccc4nnc(C(F)(F)F)n4c3)CC2)cc1 [Example 192] ... 8.7
4) FC(F)(F)c1nnc2ccc(N3CCC(Oc4cnccn4)CC3)nn12 [Example 544] ... 2.9

So for N#Cc1ccccc1S(=O)(=O)N1CCN(c2ccc3nnc(C(F)(F)F)n3n2)CC1 [Example 403] , the logged DC50 turned out to be 4.8

Given item N#Cc1ccc(CN2CCN(c3ccc4nnc(C(F)(F)F)n4n3)CC(F)(F)C2)cc1 [Example 843] , the value recorded as its DC50 is 0.93

DC50 reported for this molecule Fc1cccc(CN2CCN(c3ccc4nnc(C(F)F)n4n3)CC2)c1F [Example 256] : 7.4

Fc1ccccc1CN1CCN(c2ccc3nnc(C(F)(F)F)n3n2)CC1 [Example 72] yielded DC50 of 1

Record summary for CN1CCC(NC(=O)c2cccc(C3CCN(c4ccc5nnc(C(F)(F)F)n5n4)CC3)c2)CC1 [Example 651] : reported DC50 = 1.9

Quick note, DC50 for FC(F)(F)c1nnc2ccc(N3CCN(Cc4ccc(-c5ccccn5)cc4)CC3)nn12 [Example 134] landed at 1.8

The reported value for CN(C)CCOc1ccc(C2CCN(c3ccc4nnc(C(F)(F)F)n4n3)CC2)cc1 [Example 730] in terms of DC50 is 0.72

Given item COc1ccc(Oc2cccc(CN3CCN(c4ccc5nnc(C(F)(F)F)n5n4)CC3)c2)cc1 [Example 120] , the value recorded as its DC50 is 1.7

// DC50 lookup, molecule = Fc1ccccc1CCN1CCN(c2ccc3nnc(C(F)(F)F)n3n2)CC1 [Example 229] , result: 1.9

According to the records, this molecule FC(F)(F)c1nnc2ccc(N3CCC(c4ccc(OCCn5ccnc5)cc4)CC3)nn12 [Example 846] displays DC50 of 0.27

The recorded DC50 for COCCNC(=O)c1cccc(OC2CCN(c3ccc4nnc(C(F)(F)F)n4n3)CC2)c1 [Example 689] is 4.1

Reported DC50 of CCCCOc1cccc(CN2CCN(c3ccc4nnc(C(F)(F)F)n4n3)CC2)c1 [Example 157] : 2.4
